Known t½ of a selection of binders
- systemName: T1, cynomolgus monkey IL-33 expressed with a C-terminal hexahistidine tag (cynomolgus monkey)
- T1 construct: also called MfIL-33-6His; Mf-IL-33-6His
- T1 chain: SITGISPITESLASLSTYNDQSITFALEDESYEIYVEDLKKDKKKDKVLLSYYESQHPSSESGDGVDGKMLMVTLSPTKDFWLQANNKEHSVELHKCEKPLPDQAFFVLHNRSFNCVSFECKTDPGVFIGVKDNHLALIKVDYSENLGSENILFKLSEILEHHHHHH
- experimentNotes: SPR 37C, pH6.0 chase, mAb captured
assayReadout: t½

INSERT INTO results (binder, assayreadout, observed) VALUES
  ('H4H9665P (antibody, human IgG4, V domains shown, Human IgG4 Fc (H4H)) VH: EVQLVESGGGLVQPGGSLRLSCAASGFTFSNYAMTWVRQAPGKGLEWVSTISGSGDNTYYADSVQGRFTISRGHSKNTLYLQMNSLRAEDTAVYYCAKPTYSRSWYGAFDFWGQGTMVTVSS VL: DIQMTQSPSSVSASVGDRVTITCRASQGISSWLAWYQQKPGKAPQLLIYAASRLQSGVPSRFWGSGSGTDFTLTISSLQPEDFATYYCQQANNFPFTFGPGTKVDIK', 't½', '2.9 min'),
  ('H4H9671P (antibody, human IgG4, V domains shown, Human IgG4 Fc (H4H)) VH: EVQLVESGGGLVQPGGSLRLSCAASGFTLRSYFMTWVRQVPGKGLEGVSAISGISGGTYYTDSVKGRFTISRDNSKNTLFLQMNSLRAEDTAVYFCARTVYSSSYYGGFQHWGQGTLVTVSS VL: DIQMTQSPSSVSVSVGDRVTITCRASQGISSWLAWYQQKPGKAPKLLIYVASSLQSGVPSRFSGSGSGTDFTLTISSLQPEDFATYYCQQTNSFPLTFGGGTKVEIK', 't½', '1.4 min'),
  ('H4H9660P (antibody, human IgG4, V domains shown, Human IgG4 Fc (H4H)) VH: EVQLVESGGGLVQPGGSLRLSCAASGITLSSYGMSWVRQAPGKGLEWVASIFGSGGGPYYADSVKGRFTMSRDNSKNTLYLQMNSLRAEDTAVYYCAKDRYSGSYYGGFDYWGRGTLVTVSS VL: DIQMTQSPSSVSASVGDRVTITCRASQGITSWLAWYQQKPGKAPTLLIYAASSLQTGVPSRFSGSGSGTDFTLTISSLQPEHFATYYCQQANSFPPTFGGGTKVEIK', 't½', '2.5 min'),
  ('H4H9663P (antibody, human IgG4, V domains shown, Human IgG4 Fc (H4H)) VH: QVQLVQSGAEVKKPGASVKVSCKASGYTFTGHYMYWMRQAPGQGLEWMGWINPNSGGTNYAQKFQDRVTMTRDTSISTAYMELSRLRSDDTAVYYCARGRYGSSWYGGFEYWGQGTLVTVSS VL: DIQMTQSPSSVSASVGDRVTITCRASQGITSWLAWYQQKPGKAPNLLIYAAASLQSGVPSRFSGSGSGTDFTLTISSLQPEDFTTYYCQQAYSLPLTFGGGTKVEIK', 't½', '3.3 min'),
  ('H4H9662P (antibody, V domains shown, Human IgG4 Fc (H4H)) VH: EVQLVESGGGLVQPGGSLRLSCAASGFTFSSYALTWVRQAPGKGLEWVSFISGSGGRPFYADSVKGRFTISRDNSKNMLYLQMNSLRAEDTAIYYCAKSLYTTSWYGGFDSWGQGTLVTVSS VL: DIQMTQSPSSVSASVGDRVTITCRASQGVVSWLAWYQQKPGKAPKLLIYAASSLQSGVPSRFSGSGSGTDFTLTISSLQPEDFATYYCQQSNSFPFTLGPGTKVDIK', 't½', '7 min');
